Molecular target: c-Src SH2;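 note: peptide library displayed on the E. coli surface as eCPX fusions, selected cells deep-sequenced, score is each peptide's frequency after selection divided by its frequency in the input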
Test: SH2 binding enrichment of the phosphorylated peptide, bacterial display (enrichment ratio); higher = better substrate or ligand; peptides without Tyr show the background
Entries and their SH2 binding enrichment
Answer with a number only.

MONOMER_SEQUENCE: QGIFGYHHHMQ [UFSP2_Y287_Y290H_YF]
SH2 binding enrichment: 0.945
//
MONOMER_SEQUENCE: ECKEAYHEGEC [PRKN_Y372]
SH2 binding enrichment: 0.646

Now for the sequence whose SH2 binding enrichment we want.
// query Output SH2 binding enrichment of RSFPSYFTSHV [NEFL_Y442_YF]
// result 0.73

* * *

Quick reference: phosphorylation enrichment of the listed items.
Biological target: Fes (UniProt P07332)
Sequence (P07332 whole entry, looked up): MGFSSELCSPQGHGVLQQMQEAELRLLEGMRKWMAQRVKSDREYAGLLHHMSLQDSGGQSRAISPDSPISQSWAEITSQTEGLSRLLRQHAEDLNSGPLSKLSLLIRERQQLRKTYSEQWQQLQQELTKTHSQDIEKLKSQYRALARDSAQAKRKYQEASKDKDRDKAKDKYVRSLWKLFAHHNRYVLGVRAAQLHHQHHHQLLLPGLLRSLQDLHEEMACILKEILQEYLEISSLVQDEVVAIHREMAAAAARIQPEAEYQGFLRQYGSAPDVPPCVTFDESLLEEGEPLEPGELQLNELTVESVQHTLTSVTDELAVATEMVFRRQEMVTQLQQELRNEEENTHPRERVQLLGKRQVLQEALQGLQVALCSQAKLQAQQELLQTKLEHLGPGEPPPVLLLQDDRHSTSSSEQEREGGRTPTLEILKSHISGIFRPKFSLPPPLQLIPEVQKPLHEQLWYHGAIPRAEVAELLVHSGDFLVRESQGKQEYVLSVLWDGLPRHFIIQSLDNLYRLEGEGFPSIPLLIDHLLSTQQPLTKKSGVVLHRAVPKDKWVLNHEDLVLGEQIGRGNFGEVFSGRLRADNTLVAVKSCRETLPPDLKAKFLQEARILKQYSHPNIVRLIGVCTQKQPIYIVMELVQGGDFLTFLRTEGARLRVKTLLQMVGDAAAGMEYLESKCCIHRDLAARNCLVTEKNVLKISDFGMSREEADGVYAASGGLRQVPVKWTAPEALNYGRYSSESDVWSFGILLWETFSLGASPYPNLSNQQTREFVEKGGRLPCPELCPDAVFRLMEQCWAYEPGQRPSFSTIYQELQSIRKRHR
Assay: phosphorylation enrichment, bacterial display (enrichment ratio); higher = better substrate or ligand; peptides without Tyr show the background

Look over these answered cases.
MONOMER_SEQUENCE: KFEDVYVGICL [B3GALNT1_Y269]
phosphorylation enrichment: 1.33
//
MONOMER_SEQUENCE: SQETFYRVSNM [ABCD1_Y181_Q178E_YF]
phosphorylation enrichment: 0.763
//
MONOMER_SEQUENCE: TETGRYEILTE
phosphorylation enrichment: 0.765
//
MONOMER_SEQUENCE: FADTAYNYRHG [PAH_Y166_I164T]
phosphorylation enrichment: 0.831
//
MONOMER_SEQUENCE: IYETDYYQKGG [INSR_Y1189_R1191Q]
phosphorylation enrichment: 1.08

Turning now to a further sequence:
// query // fetch phosphorylation enrichment given entry ETLLFYGFRRS [POR_Y564_C566Y_YF]
// result 1.01

// provenance: the supplement of paper PMC10065799
